Measured values drawn from paper PMC7230820 for this set.

test-system: fatty acid amide hydrolase (FAAH) (Homo sapiens, UniProt O00519)
Sequence (O00519 whole entry): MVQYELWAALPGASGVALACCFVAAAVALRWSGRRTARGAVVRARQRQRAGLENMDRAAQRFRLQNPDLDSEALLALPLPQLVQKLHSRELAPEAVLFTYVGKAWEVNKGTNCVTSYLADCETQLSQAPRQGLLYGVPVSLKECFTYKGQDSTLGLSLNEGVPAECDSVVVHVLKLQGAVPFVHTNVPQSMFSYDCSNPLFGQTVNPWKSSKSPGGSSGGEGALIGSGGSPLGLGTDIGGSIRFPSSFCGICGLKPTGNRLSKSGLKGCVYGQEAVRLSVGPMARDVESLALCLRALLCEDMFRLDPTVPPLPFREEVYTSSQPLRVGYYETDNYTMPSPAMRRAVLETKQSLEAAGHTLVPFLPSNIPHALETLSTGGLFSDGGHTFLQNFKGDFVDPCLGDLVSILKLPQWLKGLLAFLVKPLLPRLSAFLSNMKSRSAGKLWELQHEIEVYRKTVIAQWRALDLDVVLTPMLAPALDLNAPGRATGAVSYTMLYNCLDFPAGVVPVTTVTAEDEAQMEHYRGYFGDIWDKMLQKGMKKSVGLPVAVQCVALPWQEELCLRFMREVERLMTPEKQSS
assay-details: recombinant enzyme activity assay, anandamide substrate, pH […]
reported-property: IC50 (µM)

{"test-smiles": "C\\C(C=C=C1C(C)(C)C[C@H](O)C[C@@]1(C)O)=C/C=C/C(C)=C/C=C/C=C(C)/C=C/C=C(\\C)C(=O)C[C@@]12O[C@]1(C)C[C@@H](O)CC2(C)C", "reported-property": "IC50", "units-label": "µM", "measured": 42.4}
